Study system: minipig insulin receptor (INSR) on CHOK1 cells (minipig, UniProt F1SCL0 28-758; F1SCL0 763-1382)
Test method notes: cell-based or functional assay
Observable: EC50 (nM), pAKT signaling assay
Enter your answer as a number in nM; do not include the unit.

Lab book: EC50 (nM), pAKT signaling assay of XPA.15.247.2.014 Fab (Fab, V domains shown, Fab; also called XPA.15.247.014) VH: EVQLVETGGGVVQPGRSLRLSCAASGFTFSSYAMHWVRQAPGKGLEWVAVISYSGSNKYYADSVKGRFTISRDNSKNTLYLQMNSLRAEDTAVYYCARHEWGFGFDYWGQGTTVTVSS VL: DVVMTQSPLSLPVTLGQPASISCRSSQSLVYGDGNTYLNWFQQRPGQSPRRLIYKVSKRDSGVPDRFSGSGSGTDFTLKISRVEAEDVGVYYCMQGTYWPMTFGGGTKLEIKR noted as 8.4
